# target.desc: hRANK (Homo sapiens, UniProt Q9Y6Q6)
# Construct: For NMR experiments with soluble RANK receptor-Fc (R&D Systems); purchased R&D Systems
# Sequence (Q9Y6Q6 30-212 limits assumed): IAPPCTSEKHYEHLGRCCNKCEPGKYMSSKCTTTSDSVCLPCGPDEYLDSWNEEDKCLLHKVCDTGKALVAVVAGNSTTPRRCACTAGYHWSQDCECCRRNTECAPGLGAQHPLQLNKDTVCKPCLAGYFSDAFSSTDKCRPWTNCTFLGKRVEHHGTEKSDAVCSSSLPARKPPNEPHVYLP
# assay.procedure: Surface plasmon resonance (Biacore) binding to immobilized RANK-Fc
# experimental.parameters: SPR, 1:1 Langmuir model, 25° C., pH 7.4; read-out: binding affinity (Kd) to hRANK
Ends that are not written are not given here.

polymer.sequence	Kd [µM]
ELASYIIITQLG [Pep1, ELASYIIITQLG]	20.6
